experiment: in vitro
setup.conditions: PAMPA, pH 7.4
measured.metric: recovery at 16 h, 10 µM (%)
Give your result in % as a bare value.

Provide only the value of recorded recovery at 16 h, 10 µM for Cc1cc(=O)n(-c2ccccc2)n1C [Antipyrine]
145

----------
Reported values of viability at 72 h, 25 µM for individual entries
experiment: MTS assay, cytotoxicity (72 h)
Format: cell-based
setup.conditions: human, HEK293a SHH+ cells; 25 μM, 72 h
Give your result in % as a bare value.

CC(=O)N1CCc2sccc2[C@@H]1c1cccc(C)n1
88

Provide only the value of recorded viability at 72 h, 25 µM for C=CCN1CCc2sccc2C1c1cccc(C)c1 (stereo not shown)
74

Provide only the value of recorded viability at 72 h, 25 µM for CC(C)CCNC(=O)N1CCc2ccccc2C1c1ccccc1 (stereo not shown)
12

Provide only the value of recorded viability at 72 h, 25 µM for CCC(C)CNCC(=O)N1CCc2sccc2C1C1CCCCC1 (stereo not shown)
25

----------
experiment: PAMPA parallel artificial membrane permeability assay
setup.conditions: PAMPA, pH 7.4, PAMPA Permeability Class pH 7.4, donor pH 7.4, 10 µM
measured.metric: Papp at 16 h, 10 μM

C=CCNCC(=O)N1CCc2sccc2C1COc1ccc(Cl)cc1 (stereo not drawn)
> 20 ×10⁻⁶ cm/s

Provide only the value of recorded Papp at 16 h, 10 μM for CCC(C)CNCC(=O)N1CCc2sccc2C1c1cccc(C)c1 (stereo not drawn)
< 5 ×10⁻⁶ cm/s

Provide only the value of recorded Papp at 16 h, 10 μM for CC(=O)N1CCc2ccccc2C1c1ccccc1 (stereo not drawn)
> 20 ×10⁻⁶ cm/s

Provide only the value of recorded Papp at 16 h, 10 μM for CCC(C)CNCC(=O)N1CCc2sccc2C1c1cccc(C)n1 (stereo not drawn)
> 20 ×10⁻⁶ cm/s

Provide only the value of recorded Papp at 16 h, 10 μM for CC(=O)N1CCc2sccc2C1c1ccccc1 (stereo not drawn)
> 20 ×10⁻⁶ cm/s

Provide only the value of recorded Papp at 16 h, 10 μM for CC(C)(C)NCC(O)COc1cccc2c1CC(O)C(O)C2 (stereo not drawn) [Nadolol, reference compound]
< 5 ×10⁻⁶ cm/s

----------
experiment: MTS assay, cytotoxicity (72 h)
Format: cell-based
setup.conditions: human, HEK293a SHH+ cells; 25 μM, 72 h
measured.metric: viability at 72 h, 25 µM (%)
Give your result in % as a bare value.

CC(C)CNCC(=O)N1CCc2ccccc2C1c1ccccc1 (centres unmarked) [Compound 39]
92
C=CCNCC(=O)N1CCc2sccc2C1c1ccccc1 (centres unmarked)
73
C[C@H](N)C(=O)N1CCc2sccc2C1c1ccccc1 (some centres unmarked)
74

Provide only the value of recorded viability at 72 h, 25 µM for CC(C)CNCC(=O)N1CCc2ccccc2C1c1ccccc1 (stereo in doubt) [Compound 42]
91

----------
experiment: MTS assay, cytotoxicity (72 h)
Format: cell-based
setup.conditions: human, HEK293a SHH+ cells; 12.5 μM, 72 h
measured.metric: viability at 72 h, 12.5 µM (%)
Give your result in % as a bare value.

CC[C@H](C)CNCC(=O)N1CCc2sccc2C1c1cccc(C)n1 (some centres unmarked)
87
Cc1cccc([C@@H]2c3ccsc3CCN2C(=O)CNCC(C)C)n1
108
CC(C)CNCC(=O)N1CCc2ccccc2C1c1ccccc1 (centres unmarked) [Compound 39]
94
C=CCNCC(=O)N1CCc2sccc2C1c1ccccc1 (centres unmarked)
86

Moving on to another molecule below.
Provide only the value of recorded viability at 72 h, 12.5 µM for CC(C)CNCC(=O)N1CCc2ccccc2C1c1ccccc1 (stereo in doubt) [Compound 42]
92

----------
Reported values of Papp at 16 h, 10 μM for individual entries
experiment: PAMPA parallel artificial membrane permeability assay
setup.conditions: PAMPA, pH 5, PAMPA Papp pH 5, donor pH 5, 10 µM

Example cases with answers are listed next.
CC(C)(C)NCC(O)COc1cccc2c1CC(O)C(O)C2 (stereo not drawn) [Nadolol, reference compound]
< 0.4 ×10⁻⁶ cm/s
CCC(C)CNCC(=O)N1CCc2sccc2C1c1cccc(C)n1 (stereo not drawn)
< 0.4 ×10⁻⁶ cm/s

Moving on to another compound below.
Provide only the value of recorded Papp at 16 h, 10 μM for O=c1ccc2ccccc2o1 [Coumarin, reference compound]
124 ×10⁻⁶ cm/s

----------
Reported values of recovery at 16 h, 10 µM for individual entries
experiment: PAMPA parallel artificial membrane permeability assay
setup.conditions: PAMPA, pH 5
Give your result in % as a bare value.

Example cases with answers are listed next.
O=c1ccc2ccccc2o1 [Coumarin, reference compound]
99
CC(C)(C)NCC(O)COc1cccc2c1CC(O)C(O)C2 (centres unmarked) [Nadolol, reference compound]
97

Provide only the value of recorded recovery at 16 h, 10 µM for CC(=O)N1CCc2sccc2C1c1ccccc1 (centres unmarked) [Compound 5]
95

Provide only the value of recorded recovery at 16 h, 10 µM for CCC(C)CNCC(=O)N1CCc2ccccc2C1c1ccccc1 (centres unmarked) [Compound 38]
91

Provide only the value of recorded recovery at 16 h, 10 µM for CC(=O)N1CCc2ccccc2C1c1ccccc1 (centres unmarked) [Compound 37]
95

----------
Reported values of LLEAcyl-cLIP for individual entries
study.system: purified HHAT (Homo sapiens)
Construct: made in house
experiment: Acyl-cLIP assay, inhibition of purified HHAT
Format: biochemical
setup.conditions: from Acyl-cLIP IC50 and clogDpH7.4
// return a plain number; no unit text

CCC(C)CNCC(=O)N1CCc2sccc2C1c1cccc(C)n1 (stereo not shown) [Compound 22]
4.20

Provide only the value of recorded LLEAcyl-cLIP for COc1ccccc1C1c2ccsc2CCN1C(C)=O (stereo not shown) [Compound 31]
2.21

Provide only the value of recorded LLEAcyl-cLIP for Cc1cccc(C2c3ccsc3CCN2C(=O)CNCC(C)C)n1 (stereo not shown) [Compound 24]
4.90

Provide only the value of recorded LLEAcyl-cLIP for CC(=O)N1CCc2sccc2C1c1ccccn1 (stereo not shown) [Compound 18]
2.73

Provide only the value of recorded LLEAcyl-cLIP for CCC(C)CNCC(=O)N1CCc2ccc(Cl)cc2C1c1ccccc1 (stereo not shown) [Compound 45]
2.43

Provide only the value of recorded LLEAcyl-cLIP for CC(C)CNCC(=O)N1CCc2ccccc2C1c1ccccc1 (stereo not shown) [Compound 39]
3.30

Provide only the value of recorded LLEAcyl-cLIP for CC(=O)N1CCc2sccc2C1c1ccccc1 (stereo not shown) [Compound 5]
2.39

Provide only the value of recorded LLEAcyl-cLIP for CCC(C)CNCC(=O)N1CCc2sccc2C1COc1cccc(C)c1 (stereo not shown) [Compound 3]
3.16

Provide only the value of recorded LLEAcyl-cLIP for C=CC(=O)N1CCc2sccc2C1c1cccc(C)c1 (stereo not shown) [Compound 16]
0.66

Provide only the value of recorded LLEAcyl-cLIP for C=CCNCC(=O)N1CCc2sccc2C1COc1ccc(Cl)cc1 (stereo not shown) [Compound 2]
2.48

----------
experiment: in vitro
setup.conditions: PAMPA, pH 5, PAMPA Permeability Class pH 5
measured.metric: Papp at 16 h, 10 μM

Provide only the value of recorded Papp at 16 h, 10 μM for Cc1cc(=O)n(-c2ccccc2)n1C [Antipyrine]
5 to 20 ×10⁻⁶ cm/s

----------
Reported values of Papp at 16 h, 10 μM for individual entries
experiment: PAMPA parallel artificial membrane permeability assay
setup.conditions: PAMPA, pH 5, PAMPA Permeability Class pH 5, donor pH 5, 10 µM

Example cases with answers are listed next.
CC(=O)N1CCc2sccc2C1c1ccccc1 (centres unmarked)
> 20 ×10⁻⁶ cm/s
CCC(C)CNCC(=O)N1CCc2sccc2C1c1cccc(C)n1 (centres unmarked)
< 5 ×10⁻⁶ cm/s
CCC(C)CNCC(=O)N1CCc2ccccc2C1c1ccccc1 (centres unmarked)
< 5 ×10⁻⁶ cm/s
CCC(C)CNCC(=O)N1CCc2sccc2C1c1cccc(C)c1 (centres unmarked)
< 5 ×10⁻⁶ cm/s
O=c1ccc2ccccc2o1 [Coumarin, reference compound]
> 20 ×10⁻⁶ cm/s

Provide only the value of recorded Papp at 16 h, 10 μM for CC(=O)N1CCc2ccccc2C1c1ccccc1 (centres unmarked)
> 20 ×10⁻⁶ cm/s

Provide only the value of recorded Papp at 16 h, 10 μM for CC(C)(C)NCC(O)COc1cccc2c1CC(O)C(O)C2 (centres unmarked) [Nadolol, reference compound]
< 5 ×10⁻⁶ cm/s

Provide only the value of recorded Papp at 16 h, 10 μM for C=CCNCC(=O)N1CCc2sccc2C1COc1ccc(Cl)cc1 (centres unmarked)
< 5 ×10⁻⁶ cm/s

----------
study.system: purified HHAT (Homo sapiens, UniProt Q5VTY9)
Construct: made in house
Sequence (Q5VTY9 whole entry): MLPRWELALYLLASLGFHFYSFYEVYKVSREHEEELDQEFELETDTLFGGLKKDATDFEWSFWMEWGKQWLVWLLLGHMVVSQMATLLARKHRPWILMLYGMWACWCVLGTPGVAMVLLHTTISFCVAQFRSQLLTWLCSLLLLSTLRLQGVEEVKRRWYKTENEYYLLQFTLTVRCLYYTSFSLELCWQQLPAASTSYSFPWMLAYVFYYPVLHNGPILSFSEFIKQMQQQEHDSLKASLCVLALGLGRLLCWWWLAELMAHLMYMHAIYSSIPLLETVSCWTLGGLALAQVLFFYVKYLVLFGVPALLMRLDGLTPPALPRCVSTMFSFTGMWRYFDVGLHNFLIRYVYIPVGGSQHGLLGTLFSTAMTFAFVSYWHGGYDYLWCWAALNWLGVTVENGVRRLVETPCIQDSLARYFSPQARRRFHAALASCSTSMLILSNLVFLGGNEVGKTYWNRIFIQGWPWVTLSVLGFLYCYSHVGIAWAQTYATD
experiment: Acyl-cLIP assay, inhibition of purified HHAT
Type: biochemical
Quick rule: inhibition at 50 µM of at least 90% means Yes, below that means No.

Worked set:
CC(C)[C@H](N)C(=O)N1CCc2sccc2C1c1ccccc1 (some centres unmarked)
No
CCCCCCCC(=O)N1CCc2sccc2C1c1ccccc1 (centres unmarked)
No
N[C@H](C(=O)N1CCc2sccc2C1c1ccccc1)c1ccccc1 (some centres unmarked)
No
CC(C)CNCC(=O)N1CCc2ccccc2C1c1ccccc1 (stereo in doubt) [Compound 43]
Yes

Attention now turns to another entry.
Is inhibition at 50 µM for CC(=O)N1CCc2sccc2[C@@H]1c1cccc(C)n1 at or above 90%?
No
